experiment: Cytotoxicity against human A549/PTX cells assessed as inhibition of cell growth incubated for 72 hrs by MTT assay; format: functional, cell-based
What pIC50 was measured for each of the following?
One number for each entry, as −log10 of the molar value.

These recorded examples may help you get a feel for the data.
compound	pIC50
CC(=O)O[C@@H]1[C@H](C)/C=C/C(C)(C)C(=O)C[C@@H](OC(=O)c2cccnc2)/C(C)=C/[C@H]2[C@@H](OC(=O)c3ccccc3)[C@H](C)C[C@]12OC(C)=O	5.02
CC(=O)O[C@@H]1[C@H](C)/C=C/C(C)(C)C(=O)C[C@@H](OC(=O)c2ccccc2)/C(C)=C/[C@H]2[C@@H](OC(=O)c3ccccc3)[C@H](C)C[C@]12OC(C)=O [EUPHOSCOPIN C]	5.16

# ---- query compound ----
Which pIC50 is reported for this compound? CC(=O)O[C@]12C[C@@H](C)[C@H](OC(=O)c3ccccc3)[C@@H]1/C=C(\C)[C@H](OC(=O)c1ccccc1)CC(=O)C(C)(C)/C=C/[C@@H](C)C2=O
5.14

Entry source: ChEMBL document CHEMBL5120800
